# target: human sphingosine-1-phosphate receptor 1 (S1P1) (Homo sapiens (Human))
# Sequence (P21453 whole entry, looked up): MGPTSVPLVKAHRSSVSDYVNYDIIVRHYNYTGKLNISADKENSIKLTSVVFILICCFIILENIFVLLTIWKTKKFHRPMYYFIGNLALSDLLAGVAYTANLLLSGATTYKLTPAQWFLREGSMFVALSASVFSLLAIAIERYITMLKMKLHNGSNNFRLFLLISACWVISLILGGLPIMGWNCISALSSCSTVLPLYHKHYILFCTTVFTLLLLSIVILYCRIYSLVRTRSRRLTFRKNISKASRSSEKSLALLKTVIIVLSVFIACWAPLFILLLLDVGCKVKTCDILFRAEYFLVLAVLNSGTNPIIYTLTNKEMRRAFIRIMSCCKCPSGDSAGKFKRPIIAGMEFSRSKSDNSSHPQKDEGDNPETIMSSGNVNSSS
# assay.remarks: Inhibition of cAMP production (HTRF cAMP HiRange), S1P1 CHO-K1 cells
# Format: cell-based
# run.parameters: inhibition of cAMP production, S1P1 CHO-K1 cells
observation.type: hS1P1 cAMP pEC50

| compound | target | hS1P1 cAMP pEC50 |
| --- | --- | --- |
| Cc1cnccc1-c1nc(-c2ccc3c(c2)nnn3C(C)C)no1 [Compound 8] | human sphingosine-1-phosphate receptor 1 (S1P1) (Homo sapiens (Human)) | <6.5 |
| CC(C)n1nnc2cc(-c3ncc(-c4ccc(F)cc4)s3)ccc21 [Compound 37] | human sphingosine-1-phosphate receptor 1 (S1P1) (Homo sapiens (Human)) | <6.5 |
| CC(C)Nc1ccc(-c2ncc(-c3ccc4[nH]c(=O)[nH]c4c3)cn2)cc1C#N [Compound 628] | human sphingosine-1-phosphate receptor 1 (S1P1) (Homo sapiens (Human)) | >6.5 |
| Cc1nc2cc(-c3nnc(-c4ccc(NCC(F)F)c(C#N)c4)o3)ccc2[nH]1 [Compound 561] | human sphingosine-1-phosphate receptor 1 (S1P1) (Homo sapiens (Human)) | >6.5 |
| CCC1(CC)CC(=O)c2cc(-c3nc(-c4ccc(OC)nc4)no3)ccc2O1 [Compound 301] | human sphingosine-1-phosphate receptor 1 (S1P1) (Homo sapiens (Human)) | <6.5 |

Entry under review: Cc1ccc2nc(-c3ccc4c(c3)nnn4C(C)C)oc2c1 [Compound 420] . Reported hS1P1 cAMP pEC50?
>6.5

Where these numbers come from: patent US11912693B2
